# Protocol summary: Compound stability in rat liver microsomes
# Format: in vitro ADME
# Condition notes: pH 7.4; rat liver microsomes 0.5 mg protein/mL, compound 5 μM, NADPH 1.0 mM, 37° C.; read-out: Rat T1/2
# Description: The LC/MS/MS system used in the analysis consists of an Agilent 1200 Series vacuum degasser, binary pump, well-plate autosampler, thermostatted column compartment, the Agilent G6430 Triple Quadrupole Mass Spectrometer with an electrosprayionization (ESI) source. Quantitative analysis was carried out using MRM mode. The parameters for MRM transitions are in the Table A. […] The concentrations of compounds in the incubation mixtures of human or rat liver microsomes were determined by a LC/MS/MS method. […]
Lab note: cut-off is 20 min. Strictly less in half-life at 5 μM is yes. Exactly 20 min or more is no.

Test smiles | Qualitative label
Cc1nnc(-c2c(N)ncnc2N[C@@H](C)c2cc3cccc(Cl)c3c(=O)n2C2CC2)o1 | no
CC[C@H](Nc1ncnc(N)c1-c1nnc(C)o1)c1cc2cccc(Cl)c2c(=O)n1C1CC1 | yes
CC[C@H](Nc1ncnc(N)c1-c1nc(C)no1)c1cc2cccc(-c3cnn(C)c3)c2c(=O)n1C1CC1 | no
Cc1nc(-c2c(N)ncnc2N[C@@H](C)c2cc3cccc(Cl)c3c(=O)n2C2CC2)no1 | yes
Cc1nc(-c2c(N)ncnc2N[C@@H](C)c2cc3cccc(-c4cnn(C)c4)c3c(=O)n2C2CC2)no1 | no
Cc1noc(-c2c(N)ncnc2N[C@@H](C)c2cc3cccc(Cl)c3c(=O)n2-c2ccccc2)n1 | yes
